system: plasma LPA 18:1 and LPA 18:2; assay: Human plasma ex vivo assay (LPA 18:1 / 18:2 by LC-MS/MS); type: biochemical; details: 37° C., 2 hours, LPA 18:1, read-out: Human plasma ex vivo assay IC50 (18:1 LPA)
pIC50: −log10 of the molar value.
// values below are reported pIC50
test readout: pIC50

# compound, recorded measurement
rows = [
    ("CN(c1nc(-c2ccc(F)cc2)c(C#N)s1)c1c2c(nc3c(F)cc(N4CC5(CN(C(=O)[C@@]6(O)CCOC6)C5)C4)cc13)[C@@H](O)CC2 (single isomer, unassigned) [Example E19-2b]", 6.95),
    ("CN(c1nc(-c2ccc(F)cc2)c(C#N)s1)c1c2c(nc3c(F)cc(N4CC5(CN(C(=O)[C@H]6CCOC6)C5)C4)cc13)CCC2", 6.28),
    ("C[C@H]1CN(c2cc(F)c3nc4c(c(N(C)c5nc(-c6ccc(F)cc6)c(C#N)s5)c3c2)CC[C@@H]4O)CCN1CC(=O)N1CC(O)C1 (single isomer, unassigned)", 6.55),
    ("C[C@@H]1CN(c2cc(F)c3nc4c(c(N(C)c5nc(-c6ccc(F)cc6)c(C#N)s5)c3c2)CC[C@H]4O)CCN1CC(=O)N1CC(O)C1 (single isomer, unassigned)", 6.68),
    ("CN(c1nc(-c2ccc(F)cc2)c(C#N)s1)c1c2c(nc3ccc(N4CCN(CC(=O)N5CC(O)C5)CC4)nc13)CCC2", 6.72),
]

====

target: ATX (Homo sapiens (Human), UniProt Q13822); assay: ATX enzyme inhibition assay (Amplex UltraRed/choline oxidase/HRP, 16:0 Lyso PC substrate); format: biochemical; conditions: assay buffer pH 8.5; read-out: IC50 (nM) pH 8.5
// values below are reported IC50
test readout: IC50 (nM)

# molecule, recorded measurement
measured = [
    ("C[C@H]1CN(c2cc(F)c3nc4c(c(N(C)c5nc(-c6ccc(F)cc6)c(C#N)s5)c3c2)CCC4O)CCN1CC(=O)N1CC(O)C1 (stereo partly drawn) [Example E8]", 15.4),
    ("CN(c1nc(-c2ccc(F)cc2)c(C#N)s1)c1c2c(nc3c(F)cc(N4CC5(CN(C(=O)C6(O)CCOCC6)C5)C4)cc13)COC2 [Example C20]", 24.2),
    ("C[C@H]1CN(c2cc(F)c3nc4c(c(N(C)c5nc(-c6ccc(F)cc6)c(C#N)s5)c3c2)CC[C@H]4O)CCN1CC(=O)N1CC(O)C1 (single isomer, unassigned) [Example E8-b]", 19.4),
    ("CN(c1nc(-c2ccc(F)cc2)c(C#N)s1)c1c2c(nc3c(F)cc(N4CCN(C(=O)[C@@H]5CCOC5)CC4)cc13)CCC2 [Example C6]", 196),
    ("CN(c1nc(-c2ccc(F)cc2)c(C#N)s1)c1c2c(nc3c(F)cc(N4CC5(CN(C(=O)C6(O)CCOCC6)C5)C4)cc13)[C@H](O)CC2 (single isomer, unassigned) [Example E15-b]", 18.5),
    ("CN(c1nc(-c2ccc(F)cc2)c(C#N)s1)c1c2c(nc3ccc(N4CCN(CC(=O)N5CC(O)C5)CC4)nc13)CCO2 [Example A12]", 22.3),
]

====

test: Pharmacokinetic test in mice; assay type: in vivo, ICR mice; details: male, ICR, mouse, plasma, 1 mg/kg, IV - 1 mpk
We label by threshold. Values of C0 strictly beneath 3000 ng/mL are MET. Values of 3000 ng/mL and up are NOT MET.

# compound, assigned class
rows = [
    ("Cc1cc(N2CC3(CN(C(=O)C(C)(C)O)C3)C2)nc2c(N(C)c3nc(-c4ccc(F)cc4)c(C#N)s3)c3c(nc12)CC3", "MET"),
    ("CN(c1nc(-c2ccc(F)cc2)c(C#N)s1)c1c2c(nc3c(F)cc(N4CC5(CN(C(=O)[C@H]6CCOC6)C5)C4)cc13)COC2", "MET"),
    ("CN(c1nc(-c2ccc(F)cc2)c(C#N)s1)c1c2c(nc3c(F)cc(N4CC5(CN(C(=O)C(C)(C)O)C5)C4)cc13)[C@@H](O)CC2 (single isomer, unassigned)", "NOT MET"),
    ("CN(c1nc(-c2ccc(F)cc2)c(C#N)s1)c1c2c(nc3c(F)cc(N4CC5(CN(C(=O)C(C)(C)O)C5)C4)cc13)CC2", "MET"),
    ("CN(c1nc(-c2ccc(F)cc2)c(C#N)s1)c1c2c(nc3c(F)cc(N4CC5(CN(C(=O)[C@@H]6CCOC6)C5)C4)cc13)CC2", "MET"),
]

Values were extracted from patent US20250051321A1.
